- System: IKK-alpha
- Construct: gene CHUK
- particulars: Compound Concentration (nM):1000;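 note: KINOMEscan scanMAX binding as percent activity remaining versus control; lower means stronger binding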
Doc: threshold 90% (exclusive). Items with Percent Control beneath it return Met; others return Not met.

INSERT INTO results (molecule, discrete_label) VALUES
  ('Nc1ncnc2occ(-c3ccc(NC(=O)Nc4cc(C(F)(F)F)ccc4F)cc3)c12 [GW770249X]', 'Met'),
  ('NS(=O)(=O)c1ccc(N/N=C2\C(=O)Nc3ccc(C(=O)NCCc4c[nH]cn4)cc32)cc1 [GW300660X]', 'Met'),
  ('Cl.c1ccc(Cc2nc3ccc(Nc4ncnc5ccccc45)cc3[nH]2)cc1 [GR269666A]', 'Not met'),
  ('COc1cc(C)c(N(C)C(=O)CN(C)C)cc1Nc1nc(Nc2cccc(F)c2C(N)=O)c2cc[nH]c2n1', 'Not met'),
  ('O=C1Nc2ccc(C(=O)c3ccco3)cc2C1=Cc1cc(Cl)c(O)c(Cl)c1 [GW406108X]', 'Not met'),
  ('C[C@@H](Oc1cc(-n2cnc3ccc(OC4CCN(C)CC4)cc32)sc1C(N)=O)c1ccccc1Cl [GSK579289A]', 'Not met');

====

- System: MLK3
- Construct: gene MAP3K11
- particulars: Compound Concentration (nM):1000
observation-type: Percent Control (%)

INSERT INTO measurements (compound, system, units_symbol, assay_value) VALUES
  ('CC1=C(C(=O)Nc2ccc3[nH]ncc3c2)C(c2ccc(Cl)c(Cl)c2)CC(=O)N1 (centres unmarked) [GSK299115A]', 'MLK3', '%', 97),
  ('C[C@@H](Oc1cc(-n2cnc3ccc(OC4CCN(C)CC4)cc32)sc1C(N)=O)c1ccccc1Cl [GSK579289A]', 'MLK3', '%', 100),
  ('COc1ccc2c(-c3ccnc(Nc4cccc(OC(F)(F)F)c4)n3)cnn2n1 [GW810372X]', 'MLK3', '%', 100),
  ('CC(C)COC(=O)c1ccc2c(c1)/C(=C/Nc1ccc(S(N)(=O)=O)cc1)C(=O)N2 [GW416981X]', 'MLK3', '%', 100),
  ('CC1=C(C(=O)Nc2ccc3[nH]ncc3c2)C(c2ccc3ccccc3c2)CC(=O)N1 (centres unmarked) [GSK270822A]', 'MLK3', '%', 76),
  ('Cl.O=C(Nc1ccc(Oc2ccc3[nH]c(NC(=O)c4ccco4)nc3c2)cc1)Nc1cc(C(F)(F)F)ccc1F [GW683134A]', 'MLK3', '%', 67),
  ('CCn1c(-c2nonc2N)nc2c(C#CC(C)(C)O)nc(OCCNC)cc21.Cl', 'MLK3', '%', 100),
  ('CCS(=O)(=O)c1ccc(OC)c(Nc2ncc(-c3cccc(F)c3)o2)c1 [GW621970X]', 'MLK3', '%', 100);

====

- Test system: PAK6
- particulars: Compound Concentration (nM):1000
observation-type: Percent Control (%)

INSERT INTO results (molecule, units_symbol, assay_value) VALUES
  ('NS(=O)(=O)c1ccc(N/N=C2\C(=O)Nc3ccc(C(=O)NCc4ccncc4)cc32)cc1 [GW300657X]', '%', 81),
  ('CN(C)CCNC(=O)Nc1ccc(N(C)c2ccnc(Nc3ccc(CS(C)(=O)=O)cc3)n2)cc1.Cl [GW830900A]', '%', 90),
  ('CCS(=O)(=O)c1ccc(OC)c(Nc2ncc(-c3cccc(F)c3)o2)c1 [GW621970X]', '%', 100),
  ('CC1=C(C(=O)Nc2ccc3[nH]ncc3c2)C(c2ccc(Cl)c(Cl)c2)CC(=O)N1 (centres unmarked) [GSK299115A]', '%', 79),
  ('COc1ccc2cc(-c3c(-c4ccncc4)nc(-c4ccc(S(C)(=O)=O)cc4C)n3C)ccc2c1 [SB-633825]', '%', 97),
  ('CCc1ccc(Oc2nccc(-c3c(-c4ccc(F)cc4)ncn3C3CCNCC3)n2)cc1 [SB-242719]', '%', 82),
  ('CC1=C(C(=O)Nc2ccc3[nH]ncc3c2)C(c2ccc3ccccc3c2)CC(=O)N1 (centres unmarked) [GSK270822A]', '%', 89),
  ('NS(=O)(=O)c1ccc(N/N=C2\C(=O)Nc3ccc(Cl)cc32)cc1 [GW280670X]', '%', 100);
